Target protein (sequence): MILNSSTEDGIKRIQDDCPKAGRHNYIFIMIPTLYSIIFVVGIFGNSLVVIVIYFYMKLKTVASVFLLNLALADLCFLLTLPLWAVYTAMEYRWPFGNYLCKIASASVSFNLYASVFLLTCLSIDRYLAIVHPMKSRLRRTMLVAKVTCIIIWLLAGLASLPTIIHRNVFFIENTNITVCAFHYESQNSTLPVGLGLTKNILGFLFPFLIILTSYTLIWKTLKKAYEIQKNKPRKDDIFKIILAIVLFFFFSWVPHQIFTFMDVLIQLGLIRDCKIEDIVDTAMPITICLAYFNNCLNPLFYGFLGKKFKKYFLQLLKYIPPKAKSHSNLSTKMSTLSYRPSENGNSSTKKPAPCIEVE
Counter-ions that a name gives are not always drawn.
readout_type: IC50
Form entry: enter the amount, then its unit.

>  <molecule>
CCCCc1nc2ccnn2c(=O)n1Cc1ccc(-c2ccccc2-c2nn[nH]n2)cc1 [Example 21, potassium salt]

>  <obs_value>
3000 nM

$$$$
>  <molecule>
CCCCc1nc2ccnn2c(=O)n1Cc1ccc(-c2ccccc2-c2nn[nH]n2)cc1 [Example 17]

>  <obs_value>
1200 nM

$$$$

Input `CCCCc1nc2cc(-c3ccccc3)nn2c(=O)n1Cc1ccc(-c2ccccc2-c2nnn[nH]2)cc1` . Output IC50: 760 nM
